# PROTOCOL_DETAILS: Inhibition of recombinant Plasmodium falciparum FLN expressed in Escherichia coli BL21 using Dabcyl-HKRHSFRMRG-EDANS as substrate incubated for 10 mins by fluorecence assay
IC50 for assorted compounds

COMPOUND: O=C1NC(=O)C(c2ccccc2)(c2ccccc2)[C@@H]2C[C@@H]3c4[nH]c5ccccc5c4CCN3C[C@H]12
MEASUREMENT_KIND: IC50
REPORTED_VALUE: 12 µM
--
COMPOUND: O=c1cc(CN2CCc3n[nH]c(-c4cccc5ccccc45)c3C2)[nH]c(=O)[nH]1
MEASUREMENT_KIND: IC50
REPORTED_VALUE: > 25 µM
--
COMPOUND: O=C1c2ccc3c(c2CC12Cc1ccc4c(c1C2=O)CCCC4)CCCC3 (stereo not given)
MEASUREMENT_KIND: IC50
REPORTED_VALUE: > 25 µM
--
COMPOUND: O=C(Cn1cc(-c2nnc(-c3ccccc3)o2)c2ccccc21)Nc1ccccc1
MEASUREMENT_KIND: IC50
REPORTED_VALUE: 12 µM
--
COMPOUND: Cc1ccc(-c2noc(CSc3nc(O)cc(-c4ccccc4)n3)n2)cc1C
MEASUREMENT_KIND: IC50
REPORTED_VALUE: > 25 µM
--
COMPOUND: C[C@@H]1Cc2cc(-c3cc(CC(=O)N=c4[nH]c5ccccc5[nH]4)no3)ccc2O1
MEASUREMENT_KIND: IC50
REPORTED_VALUE: > 25 µM

Task item: Look up IC50 for this compound: O=C(c1cc(-c2cccc3cccnc23)cc(-n2cnnn2)c1)N1CCCCC1
Reply: > 25 µM

Task item: Request the reported IC50 associated with CN1CCC2(CC1)Oc1ccccc1[C@H]1CC(c3cccc4ccccc34)=NN12
Reply: > 25 µM
